Experiment: IN Cell qHTS Assay for Inhibitors of the mTORC1 Signaling Pathway in MEF (Tsc2-/-, p53-/-) Cells: Sytravon; note: nearly all actives have a fitted effect of over 60% in size
Conditions: phospho-rpS6 immunofluorescence, 24 h; series mostly up to 38.3 µM
The campaign covered roughly 2,100 compounds. About 210 (10%) were called active. Roughly 53% stayed inconclusive and do not appear here. Some of the results follow.
propertyName: outcome

Solved cases below.
Reported outcome for "C=CCc1cccc2cc(-c3nc4ccc(C)cc4[nH]3)c(=O)oc12" : what is it?
inactive

Reported outcome for COc1ccc(N2CCN(CC(O)COc3ccc(C)c(C)c3)CC2)cc1 (stereo unspecified) : what is it?
inactive

Reported outcome for "COC(=O)c1c(C)oc2ccc(N(C(=O)c3ccncc3)S(=O)(=O)c3cc(C)ccc3C)cc12" : what is it?
inactive

Reported outcome for "CCOc1ccc(-n2nc(CO)c(C(=O)NCc3cccs3)n2)cc1" : what is it?
inactive

Reported outcome for "CCN(C(=O)CN1C(=O)c2ccccc2Sc2ccc(C(=O)OC)cc21)c1cccc(C)c1" : what is it?
inactive

Next:
Reported outcome for "CCOc1ccccc1C(=O)N(Cc1ccco1)Cc1ccccc1F" : what is it?
inactive
